- TEST_PROTOCOL: stimulators of nuclear beta-catenin in C2C12, primary screen, imaging, WNT3A-conditioned medium, mouse C2C12, NPC library (AID 1117326)
- RUN_CONDITIONS: at 10 µM, stronger effect = higher value
Listed next: entries and their corresponding nuclear beta-catenin stimulation.
Only the number, expressed in %, is required.

Known results for compounds:
{"COMPOUND": "CN1CCCC(n2nc(Cc3ccc(Cl)cc3)c3ccccc3c2=O)CC1 (configuration not stated)", "nuclear beta-catenin stimulation (%)": 1.5}
{"COMPOUND": "CCN(CC)CCOC(=O)c1ccc(N)cc1", "nuclear beta-catenin stimulation (%)": 0.6}
{"COMPOUND": "Clc1ccc2c(c1)Nc1ccccc1S2", "nuclear beta-catenin stimulation (%)": 0.9}

# get_value(readout='nuclear beta-catenin stimulation', item= CCOC(=O)N1CCC(n2c(=O)[nH]c3cc(Cl)ccc32)CC1 )
-2.8

Item: Clc1ccccc1-c1nc(-c2ccncc2)no1
-0.3

----------
Listed next: entries and their corresponding viability decrease (inhibition).
- TEST_PROTOCOL: decreased DLD-1 cellular survival, CellTiter-Glo luminescent readout, NPC compound collection, primary HTS (AID 1117346)
- RUN_CONDITIONS: DLD-1 viability, CellTiter-Glo luminescence; at 20 µM (top of the series)
Active and inactive are the calls of the source.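 The calls were made as follows: active = compounds that lower survival of DLD-1 colon cancer cells in the luminescence readout, no cutoff given; inactive = the rest.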

Known results for compounds:
{"COMPOUND": "CCC1(c2cnc[nH]2)Cc2ccccc2C1", "VALUE": "38.2% (inactive)"}
{"COMPOUND": "C=CC[N+]1([C@H]2C[C@H]3[C@@H]4CC[C@H]5C[C@H](OC(C)=O)[C@@H](N6CCCCC6)C[C@]5(C)[C@H]4CC[C@]3(C)[C@H]2OC(=O)CC)CCCCC1", "VALUE": "-2.8% (inactive)"}
{"COMPOUND": "O=C(c1ccco1)N1CCNCC1", "VALUE": "5.4% (inactive)"}
{"COMPOUND": "CCOC(=O)Cn1cccc1-c1nc(-c2ccc(OC)cc2)c(-c2ccc(OC)cc2)s1", "VALUE": "77.5% (active)"}
{"COMPOUND": "CC(=O)CC(c1ccccc1)c1c(O)c2ccccc2oc1=O (configuration not stated)", "VALUE": "7% (inactive)"}
{"COMPOUND": "CC(=O)N1CCN(c2ccc(O)cc2)CC1", "VALUE": "34.4% (inactive)"}

Continue with the next compound.
# get_value(readout='viability decrease (inhibition)', item= CCCCCCCCCCCCCCCCCCO )
-5.65% (inactive)

----------
- TEST_PROTOCOL: Cy5 fluorescence interference with SSB-bound oligo, artefact control for HCV NS3 helicase inhibitor project, biochemical, NIH Clinical Collection, E. coli SSB (AID 743268)
Calls of active or inactive are those of the source. The rule behind the calls is not given here.
Choose the fitting class; nothing outside yes (1) = active, no (0) = inactive is accepted.

So what was the verdict on CC1=C(/C=C/C(C)=C/C=C/C(C)=C/C(=O)O)C(C)(C)CCC1 in this test?
no (0)

Item: NC12CC3CC(CC(C3)C1)C2
no (0)

Item: c1ccc(-c2ccc(C(c3ccccc3)n3ccnc3)cc2)cc1 (centres undefined)
no (0)

Item: c1ccc(CC2=NCCN2)cc1
no (0)

----------
Listed next: entries and their corresponding fluorescence slope change.
- SYSTEM_NAME: ATP-dependent translocase ABCB1 (Homo sapiens)
- TEST_PROTOCOL: MDR1 (ABCB1) efflux transporter inhibition, cell-based (AID 377)
- RUN_CONDITIONS: MDR1-expressing cells, fluorescent substrate accumulation slope; stronger effect = higher value; concentration not given here
Results filed as inconclusive are left out.
Only the number, expressed in %, is required.

Known results for compounds:
{"COMPOUND": "CC(C)C(=O)Nc1ccc([N+](=O)[O-])c(C(F)(F)F)c1", "PROPERTY_MEASURED": "fluorescence slope change", "UNIT_STRING": "%", "VALUE": 60.9}
{"COMPOUND": "Nc1nc2ccc(OC(F)(F)F)cc2s1", "PROPERTY_MEASURED": "fluorescence slope change", "UNIT_STRING": "%", "VALUE": 60.6}
{"COMPOUND": "COC(=O)Nc1nc2ccc(C(=O)c3ccccc3)cc2[nH]1", "PROPERTY_MEASURED": "fluorescence slope change", "UNIT_STRING": "%", "VALUE": 92.4}

# get_value(readout='fluorescence slope change', item= CCn1cc(C(=O)O)c(=O)c2cc(F)c(N3CCNCC3)cc21 )
98.4

Item: CCN(CC)CCCC(C)Nc1c2ccc(Cl)cc2nc2ccc(OC)cc12 (centres undefined)
75.1

Item: COc1ccc(Cl)cc1C(=O)NCCc1ccc(S(=O)(=O)NC(=O)NC2CCCCC2)cc1
105

Item: Cc1ccccc1C(OCCN(C)C)c1ccccc1 (centres undefined)
22.7

Item: C=C(CC)C(=O)c1ccc(OCC(=O)O)c(Cl)c1Cl
85.9

Item: CCCCNc1cc(C(=O)O)cc(S(N)(=O)=O)c1Oc1ccccc1
105

----------
Listed next: entries and their corresponding EGFP object count.
- SYSTEM_NAME: Cellular tumor antigen p53 (Homo sapiens)
- TEST_PROTOCOL: kinase inhibitors altering GFP-p53 stability in HPV16-positive cells, imaging, known kinase inhibitor set, EGFP/DsRed ratio (AID 1053116);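 note: cells exposed to compounds for 24 h at 37 °C before reading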
- RUN_CONDITIONS: stronger effect = higher value; measured here: GFP-p53 positive objects count

Known results for compounds:
{"COMPOUND": "NS(=O)(=O)c1ccc(N=Nc2c(O)[nH]c3ccc(C(=O)NCCCn4ccnc4)cc23)cc1", "VALUE": 6}
{"COMPOUND": "CS(=O)(=O)CCc1cccc(C(=O)c2cnn(-c3ccc(F)cc3)c2N)c1", "VALUE": 1.5}
{"COMPOUND": "COc1ccc(N2Cc3cnc(Nc4ccccc4)nc3N(C3CCC(O)C3)C2=O)cc1 (stereo not drawn)", "VALUE": 1.5}

Continue with the next compound.
EGFP object count of O=C1NC(=Nc2ccccc2)SC1=Cc1ccc2ncccc2c1 on Cellular tumor antigen p53 (Homo sapiens)?
3

----------
- TEST_PROTOCOL: stimulators of insulin release from INS-1E, primary screen, cell-based, 5 mM glucose, NPC library (AID 1117329)
- RUN_CONDITIONS: rat INS-1E insulin secretion, at 10 µM, stronger effect = higher value
PROPERTY_MEASURED: insulin secretion stimulation (%)
Only the number, expressed in %, is required.

# get_value(readout='insulin secretion stimulation', item= O=C(O)c1ccccc1S )
-0.1

Item: COc1ccccc1OCC1CNC(=O)O1 (stereo not given)
0.9

Item: O=C(Nc1ccc(Br)cc1)c1cc(Br)c(Br)s1
3.5

Item: O=C1NC2CCCCN2C12CCN(CCCN1c3ccccc3CCc3ccc(Cl)cc31)CC2 (stereo not given)
3.85

Item: CC(=O)Nc1nnc(S(N)(=O)=O)s1
-1.1

Item: CC(C)CCOC(=O)c1ccc(N(C)C)cc1
0.4

Item: CC[N+](C)(C)c1cccc(O)c1
0

Item: CC(NN)c1ccccc1 (stereo not given)
3.35

Item: Oc1cc(O)cc(O)c1
-1.3

Item: O=c1[nH]sc2cc(Cl)ccc12
-2.7

----------
- TEST_PROTOCOL: HCT116 colon cancer cell growth inhibition, primary screen, CellTiter-Glo luminescence, NPC library (AID 1117342)
- RUN_CONDITIONS: at 20 µM (top of the series)
Listed next: entries and their corresponding inhibition of viability.
Only the number, expressed in %, is required.

{"COMPOUND": "Cc1c(C)n(Cc2ccccc2)c2ccc(C(=O)OCCN(C)C)cc12", "UNIT_STRING": "%", "inhibition of viability": 98.9}

# get_value(readout='inhibition of viability', item= C[C@@H]1C[C@H]2[C@@H]3CCC4=CC(=O)C=C[C@]4(C)[C@@]3(F)[C@@H](O)C[C@]2(C)[C@@]1(O)C(=O)COC(=O)c1ccncc1 )
-4.43

Item: CC1(C)OC(=O)Nc2ccc(Br)cc21
-4.8

Item: O=C(O)c1ccc(OCCN2CCCCC2)cc1
-8.6

Item: O=C(Cn1ccnc1[N+](=O)[O-])NCc1ccccc1
1.8

Item: C[C@]12C=CC(=O)C=C1[C@@H](F)C[C@@H]1[C@@H]2[C@@H](O)C[C@@]2(C)[C@H]1CC[C@]2(O)C(=O)CO
5

----------
- TEST_PROTOCOL: decreased DLD-1 cellular survival, CellTiter-Glo luminescent readout, NPC compound collection, primary HTS (AID 1117346)
- RUN_CONDITIONS: DLD-1 viability, CellTiter-Glo luminescence; at 20 µM (top of the series)
The source made the active and inactive calls.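 Rule for the calls: active = compounds that lower survival of DLD-1 colon cancer cells in the luminescence readout, no cutoff given; inactive = the rest.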
Choose the fitting class; nothing outside active, inactive is accepted.

{"MOLECULE": "NC(=Nc1ccccc1)Nc1ccccc1", "LABEL_VALUE": "active"}
{"MOLECULE": "CCOC(=O)C1=C(C)NC(C)=C(C(=O)OC)C1c1cccc([N+](=O)[O-])c1 (stereo not drawn)", "LABEL_VALUE": "inactive"}

So what was the verdict on CC1(C)S[C@@H]2[C@H](NC(=O)C(c3ccccc3)S(=O)(=O)O)C(=O)N2[C@H]1C(=O)O (stereo partly drawn) in this test?
inactive
